target.system: AlexaFluor647 tagged MDM2-GST (UniProt Q00987 1-491, AlexaFluor647 label)
Sequence (Q00987 whole entry): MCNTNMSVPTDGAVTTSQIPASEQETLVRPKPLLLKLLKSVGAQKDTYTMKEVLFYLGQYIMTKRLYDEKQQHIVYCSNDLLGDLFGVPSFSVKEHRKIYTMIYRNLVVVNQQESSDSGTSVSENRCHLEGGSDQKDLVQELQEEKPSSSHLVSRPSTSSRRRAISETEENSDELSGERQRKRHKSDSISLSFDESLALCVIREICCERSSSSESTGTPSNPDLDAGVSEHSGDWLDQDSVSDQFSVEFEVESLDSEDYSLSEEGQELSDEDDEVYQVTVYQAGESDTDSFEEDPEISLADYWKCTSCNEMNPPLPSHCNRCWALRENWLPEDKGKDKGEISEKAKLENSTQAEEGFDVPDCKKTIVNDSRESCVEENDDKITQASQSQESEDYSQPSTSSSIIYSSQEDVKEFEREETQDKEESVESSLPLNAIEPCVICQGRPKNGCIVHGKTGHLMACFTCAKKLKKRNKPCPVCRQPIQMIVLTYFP
procedure.details: flow cytometry on cells
Numbered stars: 1 amine (or outer) side, 2 acyl side, 3 side chain; on linkers, the order of the positions; unused ones are H or OH. Bridge positions count the residues as written; N and C are the ends. Square brackets hold non-standard residues; d marks the D form. Ends that are not written are not given here. Bis(1,2,3triazol4ylCH2)ether = c1c(COCc2cn([*:2])nn2)nnn1[*:1]; Aha = [N-]=[N+]=NCC[C@H](N)C(=O)O
readout: Kd

binder	Kd
VLSF[Aha]DYWNLL[Aha]GS (triazole 5-12 via Bis(1,2,3triazol4ylCH2)ether) [SPD-M3-V1, displayed on the bacterial surface, stabilized]	9.8 nM

Determine from records and report Kd for VLSF[Aha]DYWNLL[Aha]GS [SPD-M3-V1, displayed on the bacterial surface, non-stabilized]
64 nM
